- System: GFPY40 reporter in 3H7 cells
- protocol-details: Amber suppression-dependent GFP expression (GFPY40 reporter), transient transfection of 3H7 cells, flow cytometry
- Assay type: cell-based
- condition-context: 2 mM lys azide, three days
measurement-kind: GFP MFI in the presence of lys-azide, FIG. 6

WT tRNA: wild type tRNApyl gene of Methanosarcina mazei without extragenic promoter (nucleic acid, listed as Methanosarcina mazei, expressed or natural sequence, wild type tRNApyl gene of Methanosarcina mazei without extragenic promoter) DNA: GGAAACCTGATCATGTAGATCGAATGGACTCTAAATCCGTTCAGCCGGGTTAGATTCCCGGGGTTTCCG ... 33,781

Record B tRNA: tRNApyl Methanosarcina mazei with A52C mutation (B-box) (nucleic acid, expressed or natural sequence) DNA: GGAAACCTGATCATGTAGATCGAATGGACTCTAAATCCGTTCAGCCGGGTTCGATTCCCGGGGTTTCCG . Reported GFP MFI in the presence of lys-azide, FIG. 6: 232,505

Record H1-B tRNA: tRNA-B (A52C) under control of the H1 promoter (nucleic acid, Synthetic sequence H1 tRNA-B construct, tRNA-B (A52C) under control of the H1 promoter) DNA: AATATTTGCATGTCGCTATGTGTTCTGGGAAATCACCATAAACGTGAAATCCCTATCAGTGATAGAGACTTATAAGTTCCCTATCAGTGATAGAGACACCAGGAAACCTGATCATGTAGATCGAATGGACTCTAAATCCGTTCAGCCGGGTCAGATTCCCGGGGTTTCCGGACAAGTGCGGTTTTTTT . Reported GFP MFI in the presence of lys-azide, FIG. 6: 313,386

Record H1-tRNA: WT tRNApyl under control of the H1 promoter, positive control (nucleic acid, Synthetic sequence H1 tRNA-WT construct) DNA: AATATTTGCATGTCGCTATGTGTTCTGGGAAATCACCATAAACGTGAAATCCCTATCAGTGATAGAGACTTATAAGTTCCCTATCAGTGATAGAGACACCAGGAAACCTGATCATGTAGATCGAATGGACTCTAAATCCGTTCAGCCGGGTTAGATTCCCGGGGTTTCCGGACAAGTGCGGTTTTTTT . Reported GFP MFI in the presence of lys-azide, FIG. 6: 347,958
